Target: T1, TNFR1 (Homo sapiens, UniProt P19438)
T1 chain: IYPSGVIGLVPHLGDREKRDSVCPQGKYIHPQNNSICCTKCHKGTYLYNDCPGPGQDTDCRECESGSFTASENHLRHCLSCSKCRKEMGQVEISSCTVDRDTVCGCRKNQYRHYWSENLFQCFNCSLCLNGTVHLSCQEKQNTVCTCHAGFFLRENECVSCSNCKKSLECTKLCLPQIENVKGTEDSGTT
Test: yeast display SC50
RECORDED_METRIC: apparent Kd (screen) (pM)

A = K23Y (designed binder) SMEEEVEKAAKEYEKKKKEAIEYHLEKLKAKDKEAAERFLKELEEAAKEYAKDEAKTMSEEEAKRRAKKYKEKVLLSELSEEEQKEIKEAEEKLVRTILKYVEEAAK
B = R66K (designed binder) SMEEEVEKAAKEYEKKKKEAIEKHLEKLKAKDKEAAERFLKELEEAAKEYAKDEAKTMSEEEAKRKAKKYKEKVLLSELSEEEQKEIKEAEEKLVRTILKYVEEAAK
C = Y13C (designed binder) SMEEEVEKAAKECEKKKKEAIEKHLEKLKAKDKEAAERFLKELEEAAKEYAKDEAKTMSEEEAKRRAKKYKEKVLLSELSEEEQKEIKEAEEKLVRTILKYVEEAAK
D = A20T (designed binder) SMEEEVEKAAKEYEKKKKETIEKHLEKLKAKDKEAAERFLKELEEAAKEYAKDEAKTMSEEEAKRRAKKYKEKVLLSELSEEEQKEIKEAEEKLVRTILKYVEEAAK
Task: Reorder: apparent Kd (screen), max to min. Give the labels in the order requested.
Output: B, C, D, A
